Where these numbers come from: patent US20230295200A1

# Study Target: STAT6 protein (Homo sapiens, UniProt P42226)
# Sequence (P42226 1-847): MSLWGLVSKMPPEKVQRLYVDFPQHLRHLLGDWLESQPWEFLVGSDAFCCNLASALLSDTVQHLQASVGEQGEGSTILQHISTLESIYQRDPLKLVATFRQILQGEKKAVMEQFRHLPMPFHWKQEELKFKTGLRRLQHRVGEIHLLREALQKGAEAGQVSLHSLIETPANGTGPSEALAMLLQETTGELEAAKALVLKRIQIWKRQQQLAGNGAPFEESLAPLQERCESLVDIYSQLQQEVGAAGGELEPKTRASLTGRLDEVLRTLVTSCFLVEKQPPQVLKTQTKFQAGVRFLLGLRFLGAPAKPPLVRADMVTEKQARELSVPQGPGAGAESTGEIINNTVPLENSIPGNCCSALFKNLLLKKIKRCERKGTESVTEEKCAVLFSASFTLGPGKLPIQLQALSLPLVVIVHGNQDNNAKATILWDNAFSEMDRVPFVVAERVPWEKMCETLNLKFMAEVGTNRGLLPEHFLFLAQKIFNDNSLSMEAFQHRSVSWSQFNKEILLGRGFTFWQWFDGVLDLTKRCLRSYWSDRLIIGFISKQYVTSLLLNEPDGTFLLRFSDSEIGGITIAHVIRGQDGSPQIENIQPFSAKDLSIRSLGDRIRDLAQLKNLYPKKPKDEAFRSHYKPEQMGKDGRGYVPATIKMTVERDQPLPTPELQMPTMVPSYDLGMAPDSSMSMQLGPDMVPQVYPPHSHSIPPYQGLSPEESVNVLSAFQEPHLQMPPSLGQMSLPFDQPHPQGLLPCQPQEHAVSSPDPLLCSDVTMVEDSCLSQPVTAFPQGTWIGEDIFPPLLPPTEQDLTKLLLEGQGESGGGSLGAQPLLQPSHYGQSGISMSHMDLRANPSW
# Method: Fluorescence polarization (FP) binding assay, STAT6
# Measurement Parameters: FP competition, 5 nM fluorescein-labeled tracer, 200 nM protein, PBS pH7.4; read-out: Binding STAT6
Recorded measurements of Ki, one per entry

CCOC(=O)CO[C@H]1C[C@@H](C(=O)Nc2ccc(I)cc2)N(C(=O)[C@@H](NC(=O)c2cc3cc(C(F)(F)P(=O)(O)O)ccc3s2)C(C)(C)C)C1: 1000 to 10000 nM
CC(C)(C)[C@H](NC(=O)c1cc2cc(C(F)(F)P(=O)(O)O)ccc2s1)C(=O)N1C[C@H](OCc2ccccc2)C[C@H]1C(=O)N1Cc2ccccc2C1: 1000 to 10000 nM
CN(Cc1ccc(Br)cc1)C(=O)[C@@H]1CCCN1C(=O)[C@@H](NC(=O)c1cc2cc(C(F)(F)P(=O)(O)O)ccc2s1)C(C)(C)C: 1000 to 10000 nM
CC(C)(C)[C@H](NC(=O)c1cc2cc(C(F)(F)P(=O)(O)O)ccc2[nH]1)C(=O)N1CCC[C@H]1C(=O)Nc1ncc(-c2ccccc2)s1: > 10000 nM
O=C(N[C@@H](CC1CCCCC1)C(=O)N1CCC[C@H]1C(=O)N1CCc2ccccc2C1)c1cc2cc(C(F)(F)P(=O)(O)O)ccc2[nH]1: 1000 to 10000 nM

Inquiry: Give the reported Ki for `CC(C)(C)[C@H](NC(=O)c1cc2cc(C(F)(F)P(=O)(O)O)ccc2[nH]1)C(=O)N1CCC[C@H]1c1ncc(-c2ccccc2)s1` (system: STAT6 protein (Homo sapiens, UniProt P42226)).
Reply text: 1000 to 10000 nM

Inquiry: Next: `CC(=O)N1CC[C@H]2CC[C@@H](C(=O)N(c3ccccc3)c3ccc(Br)cc3)N2C(=O)[C@@H](NC(=O)c2cc3cc(C(F)(F)P(=O)(O)O)ccc3[nH]2)C1`
Reply text: 1000 to 10000 nM

Inquiry: Next: `CC(C)(C)[C@H](NC(=O)c1cc2cc(C(F)(F)P(=O)(O)O)ccc2[nH]1)C(=O)N1CCC[C@H]1C(=O)Nc1ccc2ccccc2c1`
Reply text: 1000 to 10000 nM

Inquiry: Next: `CC(C)(O)[C@H](NC(=O)c1cc2cc(C(F)(F)P(=O)(O)O)ccc2s1)C(=O)N1CCC[C@H]1C(=O)N1CCO[C@@H](c2ccccc2)C1`
Reply text: 1000 to 10000 nM

Inquiry: Next: CC(C)(C)[C@H](NC(=O)c1cc2cc(C(F)(F)P(=O)(O)O)ccc2s1)C(=O)N1CCC[C@H]1C(=O)N1CCOC(c2ccccc2Cl)C1 (stereo partly shown)
Reply text: 100 to 1000 nM

Inquiry: Next: `COc1ccc(C[C@H](NC(=O)c2cc3cc(C(F)(F)P(=O)(O)O)ccc3s2)C(=O)N2CCC[C@H]2C(=O)N2CCO[C@H](c3ccccc3)C2)cc1`
Reply text: 100 to 1000 nM

* * *

Protein target, amino acids: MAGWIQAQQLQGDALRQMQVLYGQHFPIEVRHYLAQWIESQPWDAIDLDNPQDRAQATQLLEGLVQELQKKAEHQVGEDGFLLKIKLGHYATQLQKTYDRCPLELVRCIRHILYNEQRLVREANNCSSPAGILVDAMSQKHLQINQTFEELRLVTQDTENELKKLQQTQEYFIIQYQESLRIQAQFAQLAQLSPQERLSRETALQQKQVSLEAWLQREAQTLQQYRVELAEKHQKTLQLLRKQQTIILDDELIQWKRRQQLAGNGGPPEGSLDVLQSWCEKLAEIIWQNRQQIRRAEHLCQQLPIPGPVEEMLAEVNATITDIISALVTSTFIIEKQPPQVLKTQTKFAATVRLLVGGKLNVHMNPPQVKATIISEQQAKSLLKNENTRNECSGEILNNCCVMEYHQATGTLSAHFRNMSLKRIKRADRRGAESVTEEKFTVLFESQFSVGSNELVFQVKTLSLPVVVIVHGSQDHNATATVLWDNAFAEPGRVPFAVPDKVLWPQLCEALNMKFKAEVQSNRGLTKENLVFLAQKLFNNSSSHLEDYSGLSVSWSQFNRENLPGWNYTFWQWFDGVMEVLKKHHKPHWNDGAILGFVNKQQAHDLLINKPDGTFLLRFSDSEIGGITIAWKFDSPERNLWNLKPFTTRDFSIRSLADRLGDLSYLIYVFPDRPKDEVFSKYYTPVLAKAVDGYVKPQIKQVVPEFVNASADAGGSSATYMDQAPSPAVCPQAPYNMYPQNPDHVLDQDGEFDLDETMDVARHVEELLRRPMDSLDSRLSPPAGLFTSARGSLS
pKi: −log10 of the molar value.
Recorded measurements of pKi, one per entry

CC(C)(C)[C@H](NC(=O)c1cc2cc(C(F)(F)P(=O)(O)O)ccc2s1)C(=O)N1CCC[C@H]1C(=O)Nc1ncc(Cc2ccccc2)s1 [Compound 211]: 5.00 to 6.00
CC(=O)N1CC[C@H]2CC[C@@H](C(=O)N3CCS(=O)(=O)C(c4ccccc4)C3)N2C(=O)[C@@H](NC(=O)c2cc3cc(C(F)(F)P(=O)(O)O)ccc3s2)C1 (some centres unmarked) [Compound 178]: 5.00 to 6.00
CCCCC(=O)N1CC[C@@H]2CN(C(=O)[C@@H]3CCCN3C(=O)[C@@H](NC(=O)c3cc4cc(C(F)(F)P(=O)(O)O)ccc4s3)C(C)(C)C)C[C@@H]21 [Compound 88]: < 5.00
CC(=O)N1CC[C@H]2CC[C@@H](C(=O)N3CCOC(c4cccc(Cl)c4)C3)N2C(=O)[C@@H](NC(=O)c2cc3cc(C(F)(F)P(=O)(O)O)ccc3s2)C1 (some centres unmarked) [Compound 162]: < 5.00
CC(=O)N1C[C@H]2CCN(C(=O)[C@@H]3CCCN3C(=O)[C@@H](NC(=O)c3cc4cc(C(F)(F)P(=O)(O)O)ccc4s3)C(C)(C)C)[C@H]2C1 [Compound 84]: < 5.00

Inquiry: For O=C(NC(C(=O)N1CCC[C@H]1C(=O)N1CCc2ccccc2C1)C1CCNCC1)c1cc2cc(C(F)(F)P(=O)(O)O)ccc2[nH]1 (some centres unmarked) [Compound 28] , what is its reported pKi?
Reply text: < 5.00

Inquiry: Next: CC(C)(C)[C@H](NC(=O)c1cc2cc(C(F)(F)P(=O)(O)O)ccc2s1)C(=O)N1CCC[C@H]1C(=O)N1CCCCC(c2ccccc2)C1 (some centres unmarked) [Compound 125]
Reply text: 5.00 to 6.00

Inquiry: Next: CC1COC(c2ccccc2)CN1C(=O)[C@@H]1CCCN1C(=O)[C@@H](NC(=O)c1cc2cc(C(F)(F)P(=O)(O)O)ccc2s1)C(C)(C)C (some centres unmarked) [Compound 126]
Reply text: 5.00 to 6.00

Inquiry: Next: O=C(/C=C/c1ccc(C(F)(F)P(=O)(O)O)cc1)NC(C(=O)N1CCC[C@H]1C(=O)N1CCc2ccccc2C1)C1CCNCC1 (some centres unmarked) [Compound 29]
Reply text: < 5.00

Inquiry: Next: CC(C)(C)[C@H](NC(=O)c1cc2cc(C(F)(F)P(=O)(O)O)ccc2s1)C(=O)N1CCC[C@H]1C(=O)Nc1ncc(C2CCCCC2)s1 [Compound 254]
Reply text: 5.00 to 6.00

Inquiry: Next: CN(C)C(=O)CCN(C(=O)[C@@H]1CCCN1C(=O)[C@@H](NC(=O)c1cc2cc(C(F)(F)P(=O)(O)O)ccc2s1)C1CC1)c1ccc(-c2nccs2)cc1 [Compound 321]
Reply text: 5.00 to 6.00
